- Assay text: RP, Waters ACQUITY UPLC BEH C18, 100 × 2.1 mm, 1.7 µm, 0.1 mL/min, estimated dead time 2.2 min; A: water + 0.1% formic acid, pH 3; B: methanol + 0.1% formic acid, pH 3; gradient (min/%B) 0/5 5/5 25/100 30/100 30.1/5 35/5
- Test parameters: stereoisomer not certain
Each entry gets 0 (no) if its LC retention time stays under 20 min, and 1 (yes) if its LC retention time is 20 min or above.

Solved entries:
- Compound: "CCCCCCCCC=CCCCCCCCC(=O)OCC(O)CO (racemic)"
  Group: "1 (yes)"
- Compound: "NC(Cc1ccc(Oc2cc(I)c(O)c(I)c2)c(I)c1)C(=O)O (centres undefined)"
  Group: "1 (yes)"
- Compound: "O=CCc1c[nH]c2ccccc12"
  Group: "0 (no)"

Query block: Could you verify whether the entry COc1ccc2[nH]cc(CCNC(C)=O)c2c1 shows LC retention time of no less than 20 min?
Result block: 0 (no)

Query block: Could you verify whether the entry O=C(O)Cc1c[nH]c2ccc(O)cc12 [5-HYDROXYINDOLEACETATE] shows LC retention time of no less than 20 min?
Result block: 0 (no)

Query block: Could you verify whether the entry Nc1nc2nccnc2c(=O)[nH]1 shows LC retention time of no less than 20 min?
Result block: 0 (no)

Query block: Could you verify whether the entry CSc1ncnc2nc[nH]c12 shows LC retention time of no less than 20 min?
Result block: 0 (no)

Query block: Could you verify whether the entry Cc1cc2nc3c(=O)[nH]c(=O)nc-3n(CC(O)C(O)C(O)CO)c2cc1C (centres undefined) shows LC retention time of no less than 20 min?
Result block: 0 (no)

Query block: Could you verify whether the entry NC(=O)Cc1c[nH]c2ccccc12 [INDOLE-3-ACETAMIDE] shows LC retention time of no less than 20 min?
Result block: 0 (no)

Query block: Could you verify whether the entry O=c1[nH]cnc2nc[nH]c12 shows LC retention time of no less than 20 min?
Result block: 0 (no)

Query block: Could you verify whether the entry C[Se]CCC(N)C(=O)O (centres undefined) shows LC retention time of no less than 20 min?
Result block: 0 (no)

Query block: Could you verify whether the entry N[C@@H](Cc1cc(I)c(O)c(I)c1)C(=O)O shows LC retention time of no less than 20 min?
Result block: 0 (no)

Query block: Could you verify whether the entry O=C(O)c1cc(=O)c2cccc(O)c2[nH]1 shows LC retention time of no less than 20 min?
Result block: 0 (no)

Query block: Could you verify whether the entry CCCCCCCCCCCCCCCC(O)C(N)CO (centres undefined) shows LC retention time of no less than 20 min?
Result block: 1 (yes)

Query block: Could you verify whether the entry CC(C)=CCNc1ncnc2nc[nH]c12 shows LC retention time of no less than 20 min?
Result block: 0 (no)

Query block: Could you verify whether the entry CC(=O)N[C@H](Cc1c[nH]c2ccccc12)C(=O)O shows LC retention time of no less than 20 min?
Result block: 0 (no)

Query block: Could you verify whether the entry C=CC1=C(C)C(C=c2[nH]c(=Cc3[nH]c(C=C4NC(=O)C(C)=C4C=C)c(C)c3CCC(=O)O)c(CCC(=O)O)c2C)=NC1=O shows LC retention time of no less than 20 min?
Result block: 1 (yes)

----------
- Assay text: RP, Waters ACQUITY UPLC BEH C18, 100 × 2.1 mm, 1.7 µm, 0.1 mL/min, estimated dead time 2.2 min; A: water + 0.1% formic acid, pH 3; B: methanol + 0.1% formic acid, pH 3; gradient (min/%B) 0/5 5/5 25/100 30/100 30.1/5 35/5
- Test parameters: stereoisomer not certain
With a cut-off of 10 min, any LC retention time strictly below it is called 1; any LC retention time meeting it or above is called -1.

Solved entries:
- Compound: "Cn1cnc2c(ncn2C2OC(CO)C(O)C2O)c1=N (stereo not given)"
  Group: -1
- Compound: "COC(=O)Cc1c[nH]c2ccccc12 [METHYL INDOLE-3-ACETATE]"
  Group: -1
- Compound: "O=C(O)CNC(=O)c1ccccc1 [HIPPURATE]"
  Group: -1
- Compound: "CN1CCC[C@H]1c1cccnc1 [(S)-NICOTINE]"
  Group: 1
- Compound: "N[C@@H](CCOC(=O)CCC(=O)O)C(=O)O"
  Group: 1

Query block: # TODO verify LC retention time < 10 min strictly for this compound: N[C@@H](Cc1ccccc1)C(=O)O
Result block: -1

----------
- Assay text: HILIC, Waters XBridge BEH Amide, 100 × 2.1 mm, 2.5 µm, 0.5 mL/min, estimated dead time 0.44 min; A: water + 0.1% acetic acid + 10 mM ammonium acetate, pH 4; B: 5% water + 95% acetonitrile + 0.1% acetic acid + 10 mM ammonium acetate, pH 4; gradient (min/%B) 0/95 5/95 20/57 25/57 30/95 40/95
- Test parameters: stereoisomer not certain
just bin them by LC retention time: low group = under 2 min, middle group = from 2 min up to 7 min, high group = 7 min and over

- Compound: "Nc1nc2c(ncn2C2OC(CO)C(O)C2O)c(=O)[nH]1 (stereo not given)"
  Group: "high group"
- Compound: "Nc1nc2c(ncn2C2OC3COP(=O)(O)OC3C2O)c(=O)[nH]1 (stereo not given) [GUANOSINE 3',5'-CYCLIC MONOPHOSPHATE]"
  Group: "high group"
- Compound: "CC(=O)N[C@H](Cc1c[nH]c2ccccc12)C(=O)O"
  Group: "high group"
- Compound: "Nc1nc2nccnc2c(=O)[nH]1"
  Group: "middle group"

Query block: Input NC(=O)Cc1c[nH]c2ccccc12 [INDOLE-3-ACETAMIDE] ; output its category
Result block: low group

Query block: Input CC(=O)NCCc1c[nH]c2ccc(O)cc12 ; output its category
Result block: low group

Query block: Input CC(=O)NC(CCC(=O)O)C(=O)O (racemic) ; output its category
Result block: high group

Query block: Input Cn1cncc1CC(NC(=O)CCN)C(=O)O (stereo not given) ; output its category
Result block: high group

----------
Entries and their measured LC retention time follow.
- Assay text: HILIC, Waters XBridge BEH Amide, 100 × 2.1 mm, 2.5 µm, 0.5 mL/min, estimated dead time 0.44 min; A: water + 0.1% acetic acid + 10 mM ammonium acetate, pH 4; B: 5% water + 95% acetonitrile + 0.1% acetic acid + 10 mM ammonium acetate, pH 4; gradient (min/%B) 0/95 5/95 20/57 25/57 30/95 40/95
- Test parameters: stereoisomer not certain
Where a name gives a salt, the structure may show the parent alone.
Express it in min; write the number only.

- Compound: "Cc1cc2nc[nH]c2cc1C"
  LC retention time, min: 0.65
- Compound: "Nc1ccccc1S(=O)(=O)O"
  LC retention time, min: 1.66
- Compound: "N[C@@H](CS(=O)(=O)O)C(=O)O"
  LC retention time, min: 13.4
- Compound: "Nc1ncnc2nc[nH]c12"
  LC retention time, min: 2.99
- Compound: "CSCCC(NC(C)=O)C(=O)O (racemic)"
  LC retention time, min: 8.06
- Compound: "CC(=O)N[C@@H](CC(C)C)C(=O)O"
  LC retention time, min: 7.4
- Compound: "CC(O)(CC(=O)O)CC(=O)O [3-HYDROXY-3-METHYLGLUTARATE]"
  LC retention time, min: 12.1
- Compound: "NC(C(=O)O)C(O)C(O)C(O)CO (stereo unspecified) [GLUCOSAMINATE]"
  LC retention time, min: 14.7

Query block: For O=C([O-])[C@H](O)[C@@H](O)[C@H](O)[C@H](O)CO [D-GLUCONATE] , write its LC retention time.
Result block: 17

Query block: For O=S(=O)(O)Oc1c[nH]c2ccccc12 [INDOXYL SULFATE] , write its LC retention time.
Result block: 0.95

Query block: For O=c1ccn(C2CC(O)C(COP(=O)(O)O)O2)c(=O)[nH]1 (stereo unspecified) [2'-DEOXYURIDINE 5'-MONOPHOSPHATE] , write its LC retention time.
Result block: 13.3

----------
- Assay text: RP, Waters CORTECS T3, 100 × 2.1 mm, 2.7 µm, 0.3 mL/min, estimated dead time 0.73 min; A: water + 0.1% formic acid, pH 3; B: methanol + 0.1% formic acid, pH 3; gradient (min/%B) 0/0 5/0 25/100 30/100 30.1/0 35/0
- Test parameters: stereoisomer not certain
Each entry gets No if its LC retention time stays under 9 min, and Yes if its LC retention time is 9 min or above.

- Molecule: "COC(=O)Cc1c[nH]c2ccccc12 [METHYL INDOLE-3-ACETATE]"
  Group: "Yes"
- Molecule: "O=C(O)c1ccc(=O)[nH]c1 [6-HYDROXYNICOTINATE]"
  Group: "No"
- Molecule: "CC1C(=O)Nc2ccccc21 (centres undefined)"
  Group: "Yes"

Query block: Could you verify whether the entry Cn1c(=O)c2c(ncn2C)n(C)c1=O shows LC retention time of no less than 9 min?
Result block: Yes

Query block: Could you verify whether the entry NC(Cc1cc(I)c(Oc2cc(I)c(O)c(I)c2)c(I)c1)C(=O)O (centres undefined) shows LC retention time of no less than 9 min?
Result block: Yes

Query block: Could you verify whether the entry O=c1[nH]c(=O)c2[nH]cnc2[nH]1 shows LC retention time of no less than 9 min?
Result block: No

Query block: Could you verify whether the entry OCCc1c[nH]c2ccccc12 shows LC retention time of no less than 9 min?
Result block: Yes

Query block: Could you verify whether the entry Cc1cc2nc3c(=O)[nH]c(=O)nc-3n(CC(O)C(O)C(O)CO)c2cc1C (centres undefined) shows LC retention time of no less than 9 min?
Result block: Yes

Ref: the RepoRT retention time repository (doi:10.1016/j.jchromb.2020.122105)
